Tested on: Osteoblast
measurement_description: Inhibition of metabolic activity in primary human osteoblasts assessed as MTT reduction after 48 hrs
Format: functional, cell-based

{"columns": ["compound", "value_modifier", "IC20 / µg/mL"],
 "data": [
  ["COc1c(N2C[C@@H]3CCCN[C@@H]3C2)c(F)cc2c(=O)c(C(=O)O)cn(C3CC3)c12 [MOXIFLOXACIN]", "=", 190],
  ["CC(=O)NC[C@H]1CN(c2ccc(N3CCOCC3)c(F)c2)C(=O)O1 [LINEZOLID]", ">", 400],
  ["CCC[C@@H]1C[C@@H](C(=O)N[C@@H]([C@H]2O[C@H](SC)[C@H](O)[C@@H](O)[C@H]2O)[C@H](C)Cl)N(C)C1 [CLINDAMYCIN]", "=", 340],
  ["O=C(O)c1cn(C2CC2)c2cc(N3CCNCC3)c(F)cc2c1=O [CIPROFLOXACIN]", "=", 260]
]}

----------
measurement_description: Cytotoxicity against primary human osteoblasts at 400 ug/ml assessed as LDH release after 24 hrs
assay_setup: osteoblast, at 400 µg/mL
Recorded Activity for the following compounds

{"columns": ["compound", "readout_units", "Activity"],
 "data": [
  ["CC[C@H]1OC(=O)[C@H](C)[C@@H](O[C@H]2C[C@@](C)(OC)[C@@H](O)[C@H](C)O2)[C@H](C)[C@@H](O[C@@H]2O[C@H](C)C[C@H](N(C)C)[C@H]2O)[C@](C)(O)C[C@@H](C)C(=O)[C@H](C)[C@@H](O)[C@]1(C)O [ERYTHROMYCIN]", "%", 40],
  ["COc1c(N2C[C@@H]3CCCN[C@@H]3C2)c(F)cc2c(=O)c(C(=O)O)cn(C3CC3)c12 [MOXIFLOXACIN]", "%", 10],
  ["CCC[C@@H]1C[C@@H](C(=O)N[C@@H]([C@H]2O[C@H](SC)[C@H](O)[C@@H](O)[C@H]2O)[C@H](C)Cl)N(C)C1 [CLINDAMYCIN]", "%", 10],
  ["CC[C@H]1OC(=O)[C@H](C)[C@@H](O[C@H]2C[C@@](C)(OC)[C@@H](O)[C@H](C)O2)[C@H](C)[C@@H](O[C@@H]2O[C@H](C)C[C@H](N(C)C)[C@H]2O)[C@](C)(O)C[C@@H](C)CN(C)[C@H](C)[C@@H](O)[C@]1(C)O [AZITHROMYCIN]", "%", 40],
  ["CC[C@H]1OC(=O)[C@H](C)[C@@H](O[C@H]2C[C@@](C)(OC)[C@@H](O)[C@H](C)O2)[C@H](C)[C@@H](O[C@@H]2O[C@H](C)C[C@H](N(C)C)[C@H]2O)[C@](C)(O)C[C@@H](C)/C(=N\\OCOCCOC)[C@H](C)[C@@H](O)[C@]1(C)O [ROXITHROMYCIN]", "%", 40]
]}

----------
Recorded IC20 for the following compounds
Tested on: Osteoblast
measurement_description: Inhibition of metabolic activity in primary human osteoblasts assessed as MTT reduction after 48 hrs
Type: functional, cell-based

{"columns": ["smiles_record", "value_modifier", "IC20 / µg/mL"],
 "data": [
  ["CC[C@H]1OC(=O)[C@H](C)[C@@H](O[C@H]2C[C@@](C)(OC)[C@@H](O)[C@H](C)O2)[C@H](C)[C@@H](O[C@@H]2O[C@H](C)C[C@H](N(C)C)[C@H]2O)[C@](C)(O)C[C@@H](C)/C(=N\\OCOCCOC)[C@H](C)[C@@H](O)[C@]1(C)O", "=", 110],
  ["O=C(N[C@H](CO)[C@H](O)c1ccc([N+](=O)[O-])cc1)C(Cl)Cl", "=", 260],
  ["CC[C@H]1OC(=O)[C@H](C)[C@@H](O[C@H]2C[C@@](C)(OC)[C@@H](O)[C@H](C)O2)[C@H](C)[C@@H](O[C@@H]2O[C@H](C)C[C@H](N(C)C)[C@H]2O)[C@](C)(O)C[C@@H](C)CN(C)[C@H](C)[C@@H](O)[C@]1(C)O", "=", 80],
  ["CC[C@H]1OC(=O)[C@H](C)[C@@H](O[C@H]2C[C@@](C)(OC)[C@@H](O)[C@H](C)O2)[C@H](C)[C@@H](O[C@@H]2O[C@H](C)C[C@H](N(C)C)[C@H]2O)[C@](C)(O)C[C@@H](C)C(=O)[C@H](C)[C@@H](O)[C@]1(C)O", "=", 210],
  ["Cc1nnc(SCC2=C(C(=O)O)N3C(=O)[C@@H](NC(=O)Cn4cnnn4)[C@H]3SC2)s1", ">", 400]
]}

// data source = ChEMBL document CHEMBL1142165
